test: Solubility in water; format: physicochemical; details: water-soluble form (NaHCO3 to pH 6.0, lyophilized)
assay_metric: solubility

Asked: Query (molecule): CO/N=C(\C(=O)NC1C(=O)N2C(C(=O)[O-])=C(C[n+]3ccc4scnc4c3)CS[C@H]12)c1csc(N)n1 (stereo partly shown) ; field requested: solubility
Given back: ≥ 250 mg/mL

----------
experiment: Mouse blood levels after single intramuscular injection; type: in vivo, mice; details: in vivo, im, 20 mg/kg
concentration at 1.5 h less than 2000 ng/mL is fulfilled; concentration at 1.5 h greater than or equal to 2000 ng/mL is not fulfilled.

Asked: # strict comparison: is reported concentration at 1.5 h < 2000 ng/mL? input = C=CCO/N=C(\C(=O)NC1C(=O)N2C(C(=O)[O-])=C(C[n+]3ccc4scnc4c3)CSC12)c1csc(N)n1 (stereo not shown) [Ic]
Given back: fulfilled

Asked: Same read-out for CO/N=C(\C(=O)NC1C(=O)N2C(C(=O)[O-])=C(C[n+]3ccc4sc(NC(=O)CN)nc4c3)CS[C@H]12)c1csc(N)n1 (stereo partly shown) [Iq] ?
Given back: not fulfilled

Asked: Same read-out for CO/N=C(\C(=O)NC1C(=O)N2C(C(=O)[O-])=C(C[n+]3ccc4sc(NC(C)=O)nc4c3)CS[C@H]12)c1csc(N)n1 (stereo partly shown) [Ip] ?
Given back: not fulfilled

Asked: Same read-out for CCO/N=C(\C(=O)NC1C(=O)N2C(C(=O)[O-])=C(C[n+]3ccc4scnc4c3)CSC12)c1csc(N)n1 (stereo not shown) [Ib] ?
Given back: fulfilled

Asked: Same read-out for CC(C)(O/N=C(\C(=O)NC1C(=O)N2C(C(=O)[O-])=C(C[n+]3ccc4scnc4c3)CS[C@H]12)c1csc(N)n1)C(=O)O (stereo partly shown) [Id] ?
Given back: fulfilled

Asked: Same read-out for CO/N=C(\C(=O)NC1C(=O)N2C(C(=O)[O-])=C(C[n+]3ccc4sc(N(C)C)nc4c3)CS[C@H]12)c1csc(N)n1 (stereo partly shown) [Iu] ?
Given back: fulfilled

Asked: Same read-out for CO/N=C(\C(=O)NC1C(=O)N2C(C(=O)[O-])=C(C[n+]3ccc4scnc4c3)CS[C@H]12)c1csc(N)n1 (stereo partly shown) [Ia] ?
Given back: not fulfilled
